result type: MDR1-MDCK efflux ratio

CNC(=O)c1ccc(N2CCCC2)nc1 : 0.58

[a] O=C(c1cn(Cc2cncn2Cc2ccc(Br)cc2)cc1-c1cccc2ccccc12)N1CCOCC1
[b] O=C(COc1ncnc2ccccc12)NC12CC3CC(CC(C3)C1)C2
[c] COc1cc(OC)cc(C(=O)NCc2noc(-c3ccccc3)n2)c1
[d] Cn1ccnc1CCNC(=O)c1cccc2cccnc12
[e] Cc1noc(C)c1CS(=O)(=O)Cc1cccc2c1OCCO2
List these items ordered by MDR1-MDCK efflux ratio, big to small. Hello, could you send the labels back in the order asked? Thank you.
a, d, e, b, c

###

result type: intrinsic clearance, human liver microsomes (mL/min/kg)

Examples with their reported intrinsic clearance, human liver microsomes follow.
O=C(Cn1ncc2ccccc21)Nc1ccc2c(c1)CCO2 : 13.7
CN(Cc1c(F)cccc1Cl)C(=O)C1(C#N)CCCC1 : 111

[1] N#Cc1nc(-c2ccccc2)oc1NCc1ccccc1
[2] CC(C)N(CCCNC(=O)Nc1ccc(C(C)(C)C)cc1)C[C@@H]1O[C@@H](n2cc(Br)c3c(N)ncnc32)[C@H](O)[C@H]1O
Given the listed records, identify the one among 1 and 2 with higher intrinsic clearance, human liver microsomes. Mark your answer with the label of the selected entry.
2
(2: 354 mL/min/kg, 1: 197 mL/min/kg)

###

result type: intrinsic clearance, human liver microsomes (mL/min/kg)

[I] CC(COc1ccccc1Cc1ccccc1)N1CCCCC1 (stereo unspecified)
[II] Cc1cncc(CN2CCC(=C3c4ccc(Cl)cc4CCc4cccnc43)CC2)c1
Please choose the item with the lower intrinsic clearance, human liver microsomes value from this pair: I and II Mark your answer with the label of the selected entry.
I

[I] CCC[C@@H]1C[C@@H](C(=O)N[C@@H]([C@H]2O[C@H](SC)[C@H](O)[C@@H](O)[C@@H]2O)[C@@H](C)O)N(C)C1
[II] CN(Cc1nnc(C2CC2)n1C)C(=O)C1C2CC3CC(C2)CC1C3 (stereo unspecified)
[III] N#Cc1cccc(-c2ccc3[nH]ccc3c2)n1
[IV] O=C(O)c1cccc(N2CCC(Oc3ccc(Cl)cc3)CC2)n1
[V] CC(C(O)c1ccc(O)cc1)N1CCC(Cc2ccccc2)CC1 (stereo unspecified)
Give the ascending ranking of the items by reported intrinsic clearance, human liver microsomes. Hello, could you send the labels back in the order asked? Thank you.
IV, I, II, V, III

###

result type: intrinsic clearance, human liver microsomes (mL/min/kg)

Examples with their reported intrinsic clearance, human liver microsomes follow.
Cc1cccc(NCCc2cc(F)cc3c2OCOC3)n1 : 397
Cc1noc(CCNc2cccc(F)c2C#N)n1 : 40.7
O=C(NC1CCCCCC1)c1ccc(CSc2nc3ccccc3[nH]2)cc1 : 161
Nc1c(C(=O)NCC2CCCO2)sc(=S)n1-c1ccc(Cl)cc1 (configuration not stated) : 35.3
O=c1[nH]c2ccccc2n1C1CCN(S(=O)(=O)Cc2ccccc2)CC1 : 79.4

[I] Cc1cc(C(F)(F)F)nc(CCNC(=O)N(C)Cc2ccncc2C)n1
[II] Cc1ccc(Cl)c(OC[C@@]2(O)CN(C3CCCC3)CC[C@@H]2O)c1
Please choose the item with the lower intrinsic clearance, human liver microsomes value from this pair: I and II Mark your answer with the label of the selected entry.
I

###

result type: intrinsic clearance, rat liver microsomes (mL/min/kg)

Cn1cc(-c2nc(C(=O)Nc3ccc4c(c3)OCCCO4)cs2)cn1 : 226
C#CCNC(=O)CN1CCCN(C(=O)c2cccc(C)n2)CC1 : 15.7
Cc1ccc(S(=O)(=O)Nc2ccc3c(c2)CCCN3C(=O)c2cccs2)cc1C : 2380
CCc1nccn1Cc1nc(N)nc(N(C)C)n1 : 17.3
Cc1nccc(-c2cccc(NCC(=O)NCc3ccccc3)c2)n1 : 653
c1ccc(Nc2nc(N3CCOCC3)nc(N3CCOCC3)n2)cc1 : 48.3

[1] Cn1cc(Nc2nc(N)nc(-c3cccc(-n4ccc5cc(C6CC6)cc(F)c5c4=O)c3CO)n2)cn1
[2] CN(CC(=O)NC1CC1)C(=O)C1C2CC3CC(C2)CC1C3 (stereo unspecified)
Given the listed records, identify the one among 1 and 2 with higher intrinsic clearance, rat liver microsomes. Mark your answer with the label of the selected entry.
2
(2: 463 mL/min/kg, 1: 37.9 mL/min/kg)

[I] CSc1nccc(N2Cc3cnn(Cc4ccc(F)cc4)c3C2)n1
[II] COc1ccc(Cl)cc1-c1cccc(C(=O)NCCN2CCCC2=O)c1
Given the listed records, identify the one among I and II with higher intrinsic clearance, rat liver microsomes. Mark your answer with the label of the selected entry.
I

###

result type: intrinsic clearance, rat liver microsomes (mL/min/kg)

O=C(c1cccs1)N1C[C@@H]2CCCN(C(=O)c3cccs3)[C@@H]2C1 : 151
O=C(C1CCCN(c2cnccn2)C1)N1CCc2ccccc2C1 (centres undefined) : 4500
Nc1ncc(C(=O)NC2CN(C(=O)C3CC3)C2)c2ccc(-c3cccc(F)c3)nc12 : 29.5
Clc1ccc2c(Oc3cccnc3)ncnc2c1 : 47
CCN1CCC(Nc2ncnc3c2cnn3C)CC1 : 21.9
Cc1cccc(NC(=O)c2cccnc2N2CCCCC2)n1 : 1670
Nc1nc(N)c2c(Cl)c(Br)ccc2n1 : 84.7
COc1ccccc1-c1ccc(CC2(C(=O)NC3CC3)CCOCC2)cc1 : 2150

[A] Cc1ccc(C(=O)C2CCN(CC(=O)NC(=O)Nc3ccccc3)CC2)c(C)c1
[B] COc1ccc(-c2ccc(CN(CCN(C)C)Cc3ccncc3)cc2)cc1
Given the listed records, identify the one among A and B with higher intrinsic clearance, rat liver microsomes. Mark your answer with the label of the selected entry.
A
(A: 936 mL/min/kg, B: 465 mL/min/kg)

[A] COc1ccc(-c2nc(NC(C)C)ncc2-c2ncc[nH]2)cc1
[B] Cc1cc(C)c2c(c1)CCCN2C(=O)c1ccc(-c2nnc(C)o2)cc1
[C] Cc1nc(Cn2ncc3ccccc3c2=O)cs1
List these items ordered by intrinsic clearance, rat liver microsomes, big to small. Hello, could you send the labels back in the order asked? Thank you.
B, A, C

[A] COc1ccc(C(=O)c2ccccc2)c(Oc2nc3c(c(=O)n(C)c(=O)n3C)n2C)c1
[B] CN(C)C(=O)c1ccc(NC(=O)c2cccc(F)c2)cc1
[C] O=C1CCC(=O)N1Cc1nc(Cc2ccccc2)cs1
[D] O=C(Nc1ccc2ccccc2n1)c1ccc(N2CCOC2=O)cc1
[E] Cc1nn(CCNS(=O)(=O)N2CCOCC2)c(C)c1C
List these items ordered by intrinsic clearance, rat liver microsomes, big to small. Hello, could you send the labels back in the order asked? Thank you.
A, E, C, B, D
(A: 1510 mL/min/kg, E: 265 mL/min/kg, C: 145 mL/min/kg, B: 69.2 mL/min/kg, D: 45.6 mL/min/kg)

[I] COc1ccc(N2CCCN(CC3CCN(C(=O)C4CC4)CC3)CC2)cc1
[II] CNC(=O)CN1CCCN(C(=O)c2c(C)nn(-c3ccccc3)c2Cl)CC1
[III] Cc1nonc1C(=O)Nc1cccnc1N(C)C
Give the ascending ranking of the items by reported intrinsic clearance, rat liver microsomes. Hello, could you send the labels back in the order asked? Thank you.
I, II, III

###

result type: intrinsic clearance, human liver microsomes (mL/min/kg)

Examples with their reported intrinsic clearance, human liver microsomes follow.
CCc1nnc(Oc2cccnc2)c(C#N)c1CC : 4.94
Cn1c(=O)n(C2CCCC2)c(=O)c2c(F)cccc21 : 23.3
CN(C)C(=O)c1ccc(NC(=O)c2cccc(F)c2)cc1 : 9.98
COc1ccc(OC)c(S(=O)(=O)NCCC(=O)Nc2ccccc2C)c1 : 51.5
C=CC[C@]1(O)CC[C@H]2[C@@H]3CCC4=CC(=O)CCC4=C3C=C[C@@]21C : 58.2

[A] COc1ccc(-n2c(Cn3cnc(C#N)n3)nc3ccccc32)cc1
[B] CC(=O)NC[C@H]1C[C@]2(C)[C@@H](CCCC[C@]2(C)O)N1CC1(O)CCOCC1
[C] O=C(Cc1ccc2c(c1)OCCO2)NC1CCCCCC1
List these items ordered by intrinsic clearance, human liver microsomes, big to small. Hello, could you send the labels back in the order asked? Thank you.
C, B, A

###

result type: intrinsic clearance, human liver microsomes (mL/min/kg)

Examples with their reported intrinsic clearance, human liver microsomes follow.
CC1=C(C(=O)Nc2cc3cn[nH]c3cc2F)C(c2ccc(C(F)(F)F)cc2)CC(=O)N1 (stereo not drawn) : 51
COc1ccc(-c2csc3ncnc(Oc4ccc(C)nc4)c23)cc1 : 78.5
CCn1c(C(=O)N(C2CC2)C2CC2)cc2c3c(ncn3C)c(Nc3cc(C)n(C)n3)nc21 : 11.3
COc1ccc2c(c1)C=C(CN1CCC(c3cc(-c4cncnc4)cc(C)n3)CC1)CO2 : 49.8

[P] CN1CC[C@@H](c2c(O)cc(O)c3c(=O)cc(-c4ccccc4Cl)oc23)[C@@H]1CO
[Q] Cc1cccnc1NC(=O)CCc1ccc(F)cc1
[R] O=C(COc1ccc2ccc(=O)oc2c1)Nc1cccc(COCc2ccco2)c1
[S] COc1ccc(CN2CC(c3ccncc3)C2)cc1Cn1cccn1
[T] COCC1(c2nc(-c3ccncc3)nn2Cc2cccc(Cl)c2)CC1
List these items ordered by intrinsic clearance, human liver microsomes, big to small. Hello, could you send the labels back in the order asked? Thank you.
T, R, P, S, Q
(T: 341 mL/min/kg, R: 77.5 mL/min/kg, P: 27 mL/min/kg, S: 10.8 mL/min/kg, Q: 6.88 mL/min/kg)

[I] CN(Cc1cnn(C)c1)c1ncnc2c1oc1ccccc12
[II] COc1ccc(-c2ccc(CN(CCN(C)C)Cc3ccncc3)cc2)cc1
[III] COc1ccc2c(c1)CN(C(=O)c1cc(C3CC3)[nH]n1)CC2
List these items ordered by intrinsic clearance, human liver microsomes, big to small. Hello, could you send the labels back in the order asked? Thank you.
III, II, I
(III: 63.1 mL/min/kg, II: 31.9 mL/min/kg, I: 19.7 mL/min/kg)
